- Test target: S. cerevisiae ALS wild type (Saccharomyces cerevisiae, UniProt P07342)
- Construct: made in house; host or cells: E. coli BL21 (DE3), pET28a-ScILV2
- Sequence (P07342 58-687): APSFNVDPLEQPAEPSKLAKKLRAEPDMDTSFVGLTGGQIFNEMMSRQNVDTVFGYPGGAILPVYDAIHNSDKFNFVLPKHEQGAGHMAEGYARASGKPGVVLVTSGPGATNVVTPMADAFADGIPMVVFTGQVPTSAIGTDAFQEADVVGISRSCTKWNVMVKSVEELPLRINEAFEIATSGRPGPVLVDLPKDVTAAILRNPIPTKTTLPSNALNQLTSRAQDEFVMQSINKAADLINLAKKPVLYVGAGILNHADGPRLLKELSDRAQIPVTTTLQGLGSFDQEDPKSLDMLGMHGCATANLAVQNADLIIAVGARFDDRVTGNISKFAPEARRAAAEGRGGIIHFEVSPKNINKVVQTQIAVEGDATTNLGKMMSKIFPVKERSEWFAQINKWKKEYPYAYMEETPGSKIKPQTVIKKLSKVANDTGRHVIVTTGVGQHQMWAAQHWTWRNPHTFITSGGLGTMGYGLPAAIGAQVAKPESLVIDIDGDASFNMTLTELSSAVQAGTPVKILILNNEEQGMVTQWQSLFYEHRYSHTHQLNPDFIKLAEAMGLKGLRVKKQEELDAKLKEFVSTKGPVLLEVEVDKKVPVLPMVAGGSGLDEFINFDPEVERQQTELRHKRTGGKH
- Assay overview: ALS biochemical assay (ScALS), wild type
- Protocol: ALS biochemical assay (ScALS) Saccharomyces cerevisiae acetohydroxyacid synthase (ScALS) lacking the N-terminal […] Escherichia coli as an N-terminally His6-tagged protein. Assays (50 µL final volume) contained […] to acetoin. Subsequently, the concentration of acetoin was determined by the addition of 7.5 µL 6 M NaOH, 25 µL 0.5% creatine (w/v in deionized water), and 25 µL 4% 1-naphthol (w/v in 2.5 M NaOH). […]
Metric: pIC50
Numbers only, as −log10 of the molar value.

Fill blank: measured pIC50 of the molecule COc1cnc(OC)n2nc(NS(=O)(=O)c3c(OCC(F)F)cccc3C(F)(F)F)nc12 [compound 3, penoxsulam] is ____.
9.40

Origin of measurements: paper PMC12947280
